test: Aqueous solubility of the compound at pH 4; format: physicochemical
// reported solubility for each item listed

chemical_string	solubility
CC[C@H]1OC(=O)[C@H](C)[C@@H](O[C@H]2C[C@@](C)(OC)[C@@H](O)[C@H](C)O2)[C@H](C)[C@@H](O[C@@H]2O[C@H](C)C[C@H](N(C)C)[C@H]2OCCC(=O)NCCNc2ccnc3cc(Cl)ccc23)[C@](C)(O)C[C@@H](C)CN(C)[C@H](C)[C@@H](O)[C@]1(C)O	> 10000 µg/mL

// next item, solubility requested
Give its solubility value. Item: CC[C@H]1OC(=O)[C@H](C)[C@@H](O[C@H]2C[C@@](C)(OC)[C@@H](O)[C@H](C)O2)[C@H](C)[C@@H](O[C@@H]2O[C@H](C)C[C@H](N(C)C)[C@H]2OCCCNCc2ccnc3ccccc23)[C@](C)(O)C[C@@H](C)CN(C)[C@H](C)[C@@H](O)[C@]1(C)O > 10000 µg/mL
